Cited source: paper PMC4502315

Assay: LDH release assay, HOSE cells
Assay type: cell-based, human
Conditions: human, 100 μM, percentage of control cells
Recorded endpoint: viability at 24 h, 100 µM (%)
Write the value in % as a bare number.

Request: // returns reported viability at 24 h, 100 µM for input Oc1ccc(/C=C/c2ccc(O)c(O)c2)cc1O [3,3′,4,4′-THS, 3,3′,4,4′-tetrahydroxy-trans-stilbene]
Result: 102

----------
Test: LDH release assay, HOSE cells
Type: cell-based, human
Settings: human, 10 μM, percentage of control cells
Recorded endpoint: viability at 24 h, 10 µM
The answer consists of two parts: a number and, after it, its unit.

Request: Look up viability at 24 h, 10 µM: Oc1ccc(/C=C/c2ccc(O)c(O)c2)cc1O [3,3′,4,4′-THS, 3,3′,4,4′-tetrahydroxy-trans-stilbene]
Result: 101%

----------
Experiment: MTT viability assay, HOSE cells
Format: cell-based, human
Conditions: human, 100 μM, percentage of control cells
Recorded endpoint: viability at 24 h, 100 µM

Request: Query: viability at 24 h, 100 µM; subject: Oc1ccc(/C=C/c2ccc(O)c(O)c2)cc1O [3,3′,4,4′-THS, 3,3′,4,4′-tetrahydroxy-trans-stilbene]
Result: 107%

----------
Experiment: MTT viability assay, HPMCs
Format: cell-based, human
Conditions: human, 100 μM, percentage of control cells
Recorded endpoint: viability at 24 h, 100 µM (%)
Respond numerically; units are % and should not be typed.

Request: Which measured viability at 24 h, 100 µM value corresponds to Oc1ccc(/C=C/c2ccc(O)c(O)c2)cc1O [3,3′,4,4′-THS, 3,3′,4,4′-tetrahydroxy-trans-stilbene] ?
Result: 102

----------
Assay: MTT viability assay, HOSE cells
Format: cell-based, human
Settings: human, 50 μM, percentage of control cells
Procedure: Cell viability was assessed with the MTT test and with lactate dehydrogenase (LDH) release assay. As per the MTT method, normal and cancer cells were seeded into 96-well plates at high density and allowed to attach overnight. Then they were incubated in a medium containing 1.25 mg/mL of the MTT salt [3-(4,5-dimethylthiazol-2-yl)-2,5-diphenyltetrazolium bromide] for 24 h at 37°C. […] Absorbance of the converted dye was recorded at 595 nm with a reference wavelength of 690 nm. […]
Recorded endpoint: viability at 24 h, 50 µM (%)
Reply with just the number (in %).

Request: Any idea what viability at 24 h, 50 µM was measured for Oc1ccc(/C=C/c2ccc(O)c(O)c2)cc1O [3,3′,4,4′-THS, 3,3′,4,4′-tetrahydroxy-trans-stilbene] ?
Result: 100

----------
Assay: MTT viability assay, HPMCs
Format: cell-based, human
Conditions: human, 50 μM, percentage of control cells
Recorded endpoint: viability at 24 h, 50 µM (%)
The answer is to be given in %; state only the numeric part.

Request: So what does the record say about viability at 24 h, 50 µM for Oc1ccc(/C=C/c2ccc(O)c(O)c2)cc1O [3,3′,4,4′-THS, 3,3′,4,4′-tetrahydroxy-trans-stilbene] ?
Result: 100
